- Test Details: Cytotoxicity against human TZM-b1 cells after 2 days
- Format: cell-based
- Assay Conditions: read-out: TC50
Listed molecules paired with reported CC50 at 48 h

Below are worked cases with known answers.
[
  {
    "Molecule": "C=C(C)[C@@H]1CC[C@]2(C(=O)NCCCC(=O)NCC(=O)O)CC[C@]3(C)[C@H](CC[C@@H]4[C@@]5(C)CC[C@H](O)C(C)(C)[C@@H]5CC[C@]43C)[C@@H]12",
    "CC50 at 48 h": "> 67 µM"
  },
  {
    "Molecule": "C=C(C)[C@@H]1CC[C@]2(C(=O)NCCCCCC(=O)O)CC[C@]3(C)[C@H](CC[C@@H]4[C@@]5(C)CC[C@H](O)C(C)(C)[C@@H]5CC[C@]43C)[C@@H]12",
    "CC50 at 48 h": "> 70 µM"
  }
]

So, `C=C(C)[C@@H]1CC[C@]2(C(=O)NCCCCCC(=O)NCC(=O)NCC(=O)O)CC[C@]3(C)[C@H](CC[C@@H]4[C@@]5(C)CC[C@H](O)C(C)(C)[C@@H]5CC[C@]43C)[C@@H]12` ? Its CC50 at 48 h was > 58 µM

Note to self: CC50 at 48 h recorded for `C=C(C)[C@@H]1CC[C@]2(C(=O)NCCCCCCCC(=O)O)CC[C@]3(C)[C@H](CC[C@@H]4[C@@]5(C)CC[C@H](O)C(C)(C)[C@@H]5CC[C@]43C)[C@@H]12` was 34.2 µM

In plain terms, `C=C(C)[C@@H]1CC[C@]2(C(=O)NCCCCCCCC(=O)NCC(=O)O)CC[C@]3(C)[C@H](CC[C@@H]4[C@@]5(C)CC[C@H](O)C(C)(C)[C@@H]5CC[C@]43C)[C@@H]12` has a documented CC50 at 48 h of 15.8 µM

The value of CC50 at 48 h measured for the molecule `C=C(C)[C@@H]1CC[C@]2(C(=O)NCCCCC(=O)NCC(=O)O)CC[C@]3(C)[C@H](CC[C@@H]4[C@@]5(C)CC[C@H](O)C(C)(C)[C@@H]5CC[C@]43C)[C@@H]12` turned out to be > 65 µM

====

- Test Details: Cytotoxicity against human TZM-b1 cells after 2 days
- Type: cell-based
- Assay Conditions: read-out: TC50
Readout Kind: CC50 at 48 h (µM)
Please reply with the bare figure in µM and do not write the unit itself.

Sample records with CC50 at 48 h:
[
  {
    "Compound": "C=C(C)[C@@H]1CC[C@]2(C(=O)NCCCCCC(=O)N[C@@H](Cc3ccc(O)cc3)C(=O)O)CC[C@]3(C)[C@H](CC[C@@H]4[C@@]5(C)CC[C@H](O)C(C)(C)[C@@H]5CC[C@]43C)[C@@H]12",
    "Units Symbol": "µM",
    "CC50 at 48 h": 54.6
  },
  {
    "Compound": "C=C(C)[C@@H]1CC[C@]2(C(=O)NCCCCCCNC(C)=O)CC[C@]3(C)[C@H](CC[C@@H]4[C@@]5(C)CC[C@H](O)C(C)(C)[C@@H]5CC[C@]43C)[C@@H]12",
    "Units Symbol": "µM",
    "CC50 at 48 h": 48.1
  }
]

Then there is this compound:
Sure, the documented CC50 at 48 h for C=C(C)[C@@H]1CC[C@]2(C(=O)NCCCCCCCC(=O)NC(CC(C)C)[C@H](O)CC(=O)O)CC[C@]3(C)[C@H](CC[C@@H]4[C@@]5(C)CC[C@H](O)C(C)(C)[C@@H]5CC[C@]43C)[C@@H]12 (single isomer, unassigned) is 33.2

====

Each entry below carries its recorded CC50 at 48 h.
- Test Details: Cytotoxicity against human TZM-b1 cells after 2 days
- Type: cell-based
- Assay Conditions: read-out: TC50

Sample records with CC50 at 48 h:
[
  {
    "Compound": "C=C(C)[C@@H]1CC[C@]2(C(=O)NCCCCCC(=O)NCC(=O)O)CC[C@]3(C)[C@H](CC[C@@H]4[C@@]5(C)CC[C@H](O)C(C)(C)[C@@H]5CC[C@]43C)[C@@H]12",
    "CC50 at 48 h": "> 64 µM"
  },
  {
    "Compound": "C=C(C)[C@@H]1CC[C@]2(C(=O)O)CC[C@]3(C)[C@H](CC[C@@H]4[C@@]5(C)CC[C@H](OC(=O)CC(C)(C)C(=O)O)C(C)(C)[C@@H]5CC[C@]43C)[C@@H]12 [BEVIRIMAT]",
    "CC50 at 48 h": "> 30 µM"
  }
]

Sample C=C(C)[C@@H]1CC[C@]2(C(=O)O)CC[C@]3(C)[C@H](CC[C@@H]4[C@@]5(C)CC[C@H](O)C(C)(C)[C@@H]5CC[C@]43C)[C@@H]12 [BETULINIC ACID] ; CC50 at 48 h observed: > 80 µM
